Molecular target: Cytochrome P450 2C19 (Homo sapiens)
Experiment: Cytochrome panel assay with activity outcomes
Details: recombinant CYP, pro-luciferin dealkylation, luminescence, p450-cyp2c19; series mostly up to 57.1 µM
Among all 16,000 compounds or so, about 5,800 (36%) were called active. Inconclusive results (about 23%) are left out. Calls follow the shape of the dose curve; as a rule, active = well fitted curve in the direction sought with a large enough effect; inconclusive = small, poorly fitted or top-dose-only effect, or effect the other way; inactive = no such curve, though single readings can be large or run the other way. This is one part of the list.
Respond only with the outcome that fits, drawn from true (1) = active, false (0) = inactive

Q: Each molecule tested received a call. Report the one for COc1cccc(N2CCN(C(=O)Nc3ccc4c(c3)NC(=O)CO4)CC2)c1 .
Ans: false (0)

Q: GET /call?item= Cc1cc(C)c(S(=O)(=O)Nc2cccc(C(F)(F)F)c2)c(C)c1 returns the recorded outcome of this test.
Ans: true (1)

Q: Please state the recorded outcome for this molecule: CN1CCN(NC(=O)c2ccccc2F)CC1
Ans: false (0)

Q: How did this test come out for C=C[C@@]1(C)CC(=O)[C@@]2(O)[C@@]3(C)[C@@H](O)CCC(C)(C)[C@@H]3[C@H](OC(=O)CCN(C)C)[C@H](OC(C)=O)[C@@]2(C)O1 ?
Ans: true (1)

Q: Returns: the outcome recorded for O=C(N/N=C/c1cccc(OCc2ccccc2)c1)c1cccs1 in this assay.
Ans: true (1)

New cases:
Q: Assay result, entry C[C@H](NC(=O)Cn1cncn1)c1ccccc1 — outcome?
Ans: false (0)

Q: Per the records of this test, what outcome belongs to CN1CCN(c2ncc3ncc(=O)n(Cc4ccc(F)cc4)c3n2)CC1 ?
Ans: false (0)

Q: Recorded test call requested for CC1=C(C#N)C(Nc2ccc(Cl)cn2)(C(F)(F)F)C(=O)N1 (stereo not given)
Ans: true (1)

Q: Assay result, entry Cc1ccc(CNC(=O)Cn2cncn2)cc1 — outcome?
Ans: true (1)

Q: What was the test verdict on COc1cccc(-c2cncnc2NCc2ccccc2OC)c1 ?
Ans: true (1)

Q: Tell me the assay call for CCCc1c(O)c2ccccc2n(-c2ccccc2)c1=O please.
Ans: true (1)

Q: Recorded test outcome, item Cc1cc(C(C)(C)C)cc(C)c1CC1=NCCN1
Ans: false (0)

Q: Called result for Cc1ccc(S(=O)(=O)/C(C#N)=C/c2c(N3CC(C)OC(C)C3)nc3ccccn3c2=O)cc1 (stereo not given)
Ans: true (1)

Q: What classification did CN1CCN(c2ncc3ncc(=O)n(Cc4cccs4)c3n2)CC1 end up with in this test?
Ans: false (0)

Q: Per the records of this test, what outcome belongs to CCCCC1(C)OC(=O)C(=Cc2ccc(N(CC)CC)cc2)C(=O)O1 (stereo not given) ?
Ans: true (1)

Q: # fetch the recorded call for Fc1ccccc1NC(=S)NCCc1ccccc1 here
Ans: true (1)

====

Molecular target: Cytochrome P450 2C19 (Homo sapiens) (UniProt P33261)
Sequence (P33261 whole entry, looked up): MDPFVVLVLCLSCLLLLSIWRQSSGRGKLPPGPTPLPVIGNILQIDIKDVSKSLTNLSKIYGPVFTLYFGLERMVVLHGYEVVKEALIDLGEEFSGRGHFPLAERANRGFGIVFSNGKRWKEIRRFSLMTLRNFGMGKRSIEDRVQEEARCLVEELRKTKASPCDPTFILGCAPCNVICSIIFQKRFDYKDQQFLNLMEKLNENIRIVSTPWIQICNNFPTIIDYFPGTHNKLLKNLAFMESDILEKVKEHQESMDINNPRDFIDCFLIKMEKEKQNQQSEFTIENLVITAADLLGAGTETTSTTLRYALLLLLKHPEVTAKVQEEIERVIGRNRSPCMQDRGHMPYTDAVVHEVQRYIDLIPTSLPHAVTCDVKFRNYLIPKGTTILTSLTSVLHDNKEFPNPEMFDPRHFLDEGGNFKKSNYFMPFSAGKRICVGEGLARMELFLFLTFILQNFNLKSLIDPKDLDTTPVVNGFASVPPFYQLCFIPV
Experiment: Cytochrome panel assay with activity outcomes
Details: recombinant CYP, pro-luciferin dealkylation, luminescence, p450-cyp2c19; series mostly up to 57.1 µM
About 5,800 (36%) of roughly 16,000 compounds were called active. Another 23% or so got no clear call; they are omitted. Calls come from the whole dose curve; as a rule, active = well fitted curve in the direction sought with a large enough effect; inconclusive = small, poorly fitted or top-dose-only effect, or effect the other way; inactive = no such curve, though single readings can be large or run the other way. Some of the results follow.
Output constraint: value belongs to active, inactive

Example results:
Q: Would you mind telling me which call this test gave O=C(O)c1cccnc1C(=O)O ?
Ans: inactive

Q: How did this test come out for CCCC[C@@H]1CN2[C@H](c3ccc(Br)cc3)[C@H](C)CC[C@H]2C(=O)O1 ?
Ans: active

Q: What did the test return for C[C@@H]1C[C@@H]2[C@H]3CCC4=CC(=O)C=C[C@]4(C)[C@]3(Cl)[C@@H](O)C[C@@]2(C)[C@@]1(O)C(=O)CO ?
Ans: inactive

Q: Could you kindly confirm the outcome this assay logged for COc1ncnc(NS(=O)(=O)c2ccc(N)cc2)c1OC ?
Ans: inactive

Q: Called result for CC(C)(C)c1cc(C(=O)O)c(CN2CCCCC2)o1
Ans: inactive

New cases:
Q: Which result was noted for this molecule in the test: CCCCCC(=O)O[C@H](CC(=O)O)C[N+](C)(C)C
Ans: inactive

Q: Could you check what this test reported for CC1CCCC(C)N1C(=O)C1CC(c2ccc(F)cc2)=NO1 (stereo unspecified) ?
Ans: active

====

Molecular target: Cytochrome P450 2C19 (Homo sapiens)
Assay: Cytochrome panel assay with activity outcomes
Settings: recombinant CYP, pro-luciferin dealkylation, luminescence, p450-cyp2c19; series mostly up to 57.1 µM
Description: The P450 gene superfamily is involved in the metabolism and clearance of xenobiotics. This assay used various human CYP P450 isozymes to measure the dealkylation of various pro-luciferin substrates to luciferin. The luciferin is then measured by luminescence after the addition of a luciferase detection reagent. […] Inhibitors and some substrates limit the production of luciferin, and decrease measured luminescence. […] 8, Detection, 1 sec, ViewLux luminescent read […]
The whole screen tested about 16,000 compounds, of which about 5,800 (36%) were called active. Not shown: some 23% with an inconclusive outcome. Some of the results follow.
Metric Name: AC50

Q: # input molecule: Cc1cc(NC(=O)CSc2nc3ccsc3c(=O)n2Cc2ccccn2)n[nH]1 ; wanted: its AC50
Ans: 15.8 µM (active)

Q: Give its AC50 value. Item: CCOCC(=O)Nc1cc(C(=O)Nc2cccc(C)c2C)ccc1Cl
Ans: inactive

Q: Look up AC50 for this molecule: O=C(CSc1nc2ccccc2c(=O)n1CCCC(=O)N1CCCC1)NCc1ccco1
Ans: 4.47 µM (active)

Q: Requested field: AC50. Item: c1ccc(CNc2ncnc3ccc(-c4ccc5c(c4)OCO5)cc23)cc1
Ans: 3.16 µM (active)

Q: // AC50 lookup, key: O=C(c1cc(C(F)(F)F)cc(C(F)(F)F)c1)N1CCC[C@@]2(CCN(Cc3nccs3)C2)C1
Ans: inactive

Q: Given the molecule Cc1ccc(OCC(=O)Nn2cnc3ccccc32)cc1 , what is its reported AC50?
Ans: 20 µM (active)

Q: Any idea what its AC50 is? The molecule is Cc1ccc(OCC(=O)NC2=NCCS2)cc1
Ans: 17.8 µM (active)

Q: Entry COc1ccc(Oc2ncc3nc(-c4ccc(Cl)cc4)c(=O)n(C)c3n2)cc1 : reported AC50 = ?
Ans: inactive

Q: Record request: AC50 value, item Cc1c(NC(=O)C(Sc2ccccc2)c2ccccc2)cccc1[N+](=O)[O-] (stereo unspecified)
Ans: 0.891 µM (active)

Q: For the molecule O=C(c1cccc(F)c1)N1CCC[C@@]2(CCN(Cc3nccs3)C2)C1 , what AC50 is on record?
Ans: 2.51 µM (active)

Shift focus to the following entry.
Q: # query: AC50 of entry O=C1CCc2cc(OCCCCc3nnnn3C3CCCCC3)ccc2N1
Ans: inactive

====

Molecular target: Cytochrome P450 2C19 (Homo sapiens) (UniProt P33261)
Assay: Cytochrome panel assay with activity outcomes
Conditions: recombinant CYP, pro-luciferin dealkylation, luminescence, p450-cyp2c19; series mostly up to 57.1 µM
Out of some 16,000 compounds screened, about 5,800 (36%) were called active. Roughly 23% stayed inconclusive and do not appear here. The list shows a part of the results.
Metric Name: AC50

Some compounds with recorded AC50:
Q: Suppose we examine the compound CC(NC(=O)Cn1cnc([N+](=O)[O-])n1)c1ccccc1 (stereo not given) ; what AC50 value has been reported?
Ans: 39.8 µM (active)

Q: Tell me the measured AC50 of N#CC(=C1CCCC1)c1nc(-c2ccccc2)cs1 , please.
Ans: 1.41 µM (active)

Q: Param item = COc1ccccc1N1CCN(CCCCN2C(=O)CCC2=O)CC1 ; retrieve measured AC50.
Ans: 10 µM (active)

Q: Quick check: AC50 of O=c1c(CCc2ccccc2)nc2cncnc2n1-c1ccccc1 ?
Ans: 10 µM (active)

Q: Value lookup for AC50; key = COc1ccc(Oc2c(C=O)c3ccccc3n2C)cc1
Ans: 2.82 µM (active)

More entries:
Q: AC50 lookup needed for O=c1onc(-c2cccs2)n1Cc1ccccc1 , thanks.
Ans: 1 µM (active)

Q: For COc1ccccc1CN1CCCC2(CCNCC2)C1 , what is its reported AC50?
Ans: inactive

Q: Consider the compound shown here: O=c1[nH][nH]c(C(F)(F)F)c1C=Nc1cccc(Cl)c1 What is its recorded AC50?
Ans: inactive

Q: Fill in: AC50 of O=c1c(CCc2ccccc2)nc2cncnc2n1Cc1ccc(F)cc1 is ___
Ans: 6.31 µM (active)

Q: Using the record for COCCNc1ncnc2ccc(-c3ccccc3C(F)(F)F)cc12 , report its AC50.
Ans: 6.31 µM (active)

====

Molecular target: Cytochrome P450 2C19 (Homo sapiens) (UniProt P33261)
Experiment: Cytochrome panel assay with activity outcomes; as to activity, negative = inhibition: % is scaled to controls: 0 for no effect and ±100 for the full control effect
Settings: recombinant CYP, pro-luciferin dealkylation, luminescence, p450-cyp2c19; series mostly up to 57.1 µM
Among all 16,000 compounds or so, about 5,800 (36%) were called active. Inconclusive results (about 23%) are left out. The list shows a part of the results.
The entries below are paired with their reported activity, negative = inhibition.

Completed entries (count: 2):
Q: Look at this compound and give its reported activity, negative = inhibition. CC1(CC(=O)O)O[C@H]2CCCCC[C@H]2O1 (stereo not given in full) (tested in a mixture with another compound)
Ans: 1.88% [at 11.4 µM] (inactive)

Q: What activity, negative = inhibition value was documented for this compound, NS(=O)(=O)c1cc(Br)c(N=Nc2ccc(O)c3ncccc23)c(Br)c1 ?
Ans: -10.5% [at 11.4 µM] (inactive)

Next:
Q: Dear colleague, I am looking for the recorded activity, negative = inhibition of the following compound: O=C(N/N=C\c1cccc(O)c1)c1ccncc1
Ans: -1.11% [at 11.4 µM] (inactive)

Q: Entry under review: C/C(=N\[N+](C)(C)C)c1ccc(C)c(C)c1 . Reported activity, negative = inhibition?
Ans: 17.4% [at 11.4 µM] (inactive)

Q: Name the reported activity, negative = inhibition value associated with the compound CC(C)(C[C@@]1(C)NC(=O)NC1=O)OCc1ccccc1
Ans: 18.1% [at 11.4 µM] (inactive)

Q: What does the data say about its activity, negative = inhibition? Entry: COC(=O)C/C=C\[C@@H](C)[C@@H]1C=C[C@H](OC(C)=O)[C@H](COC(C)=O)O1
Ans: 16.3% [at 11.4 µM] (inactive)

Q: Please give the measured activity, negative = inhibition for this compound: CC(C)(C)NCC[C@@H](O)c1cc(C(F)(F)F)nc2c(C(F)(F)F)cccc12
Ans: -11% [at 11.4 µM] (inactive)

Q: Quick check: activity, negative = inhibition of O=S(=O)(O)c1cc(O)c2c(O)c(N=Nc3cccc4ccccc34)c(S(=O)(=O)O)cc2c1 ?
Ans: -44.3% [at 11.4 µM] (inactive)
